measurement_target: Protein cereblon/Cyclic GMP-AMP synthase (Homo sapiens, UniProt Q96SW2+Q8N884)
Sequence (Q8N884 whole entry, looked up): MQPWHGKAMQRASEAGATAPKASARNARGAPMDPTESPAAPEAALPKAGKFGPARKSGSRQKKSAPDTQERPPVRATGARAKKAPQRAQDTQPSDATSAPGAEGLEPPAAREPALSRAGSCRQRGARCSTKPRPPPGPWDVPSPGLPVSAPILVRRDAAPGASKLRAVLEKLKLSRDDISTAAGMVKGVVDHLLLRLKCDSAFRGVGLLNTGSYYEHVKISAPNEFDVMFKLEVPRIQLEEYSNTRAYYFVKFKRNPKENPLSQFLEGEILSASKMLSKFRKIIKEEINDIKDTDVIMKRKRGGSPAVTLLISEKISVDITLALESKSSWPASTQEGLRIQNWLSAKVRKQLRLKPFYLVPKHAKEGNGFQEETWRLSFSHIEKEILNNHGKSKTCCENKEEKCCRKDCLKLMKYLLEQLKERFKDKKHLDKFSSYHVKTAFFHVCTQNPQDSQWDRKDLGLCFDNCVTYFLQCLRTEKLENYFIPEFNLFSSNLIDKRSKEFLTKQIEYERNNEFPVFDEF
Sequence (Q96SW2 whole entry, looked up): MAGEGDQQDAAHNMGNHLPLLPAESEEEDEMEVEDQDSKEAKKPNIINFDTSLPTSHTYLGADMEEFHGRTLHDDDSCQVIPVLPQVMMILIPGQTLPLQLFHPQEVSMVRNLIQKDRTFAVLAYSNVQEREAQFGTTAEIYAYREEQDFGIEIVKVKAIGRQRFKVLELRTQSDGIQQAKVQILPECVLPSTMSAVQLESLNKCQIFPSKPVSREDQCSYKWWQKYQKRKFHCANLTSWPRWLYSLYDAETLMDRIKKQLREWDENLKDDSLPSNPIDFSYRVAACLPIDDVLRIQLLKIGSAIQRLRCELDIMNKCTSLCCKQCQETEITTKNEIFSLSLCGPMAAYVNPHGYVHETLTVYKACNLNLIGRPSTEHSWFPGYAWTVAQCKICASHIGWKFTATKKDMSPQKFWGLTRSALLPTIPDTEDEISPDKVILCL
protocol_notes: PROTAC activity at CRBN/cGAS in human THP-1 cells assessed as induction of cGAS degradation at 10 uM preincubated with compound for 40 hrs followed by HT-DNA stimulation and measured after 8 hrs by Western blot analysis relative to control
Assay type: cell-based
reported_conditions: time 48.0 hrs
measurement_name: Activity (%)
Please give a number only; it is taken to be in %.

Some entries whose results are on file:
INSERT INTO assay_data (molecule, test_value) VALUES
  ('Cn1ccc(-c2cc(Cl)c(Cl)c3[nH]c4c(c23)CN(C(=O)CNC(=O)CCCCCC#Cc2cccc3c2CN(C2CCC(=O)NC2=O)C3=O)CC4)n1 (stereo not drawn)', 54.4),
  ('O=C1CCC(N2C(=O)c3cccc(NCCCC(=O)N4CCC(Cn5cc(-c6cc(Cl)c(Cl)c7[nH]c8c(c67)CN(C(=O)CO)CC8)cn5)CC4)c3C2=O)C(=O)N1 (stereo not drawn)', 4.7);

Request: What value of Activity has been recorded for this entry: O=C1CCC(N2C(=O)c3cccc(NCCOCCOCC(=O)N4CCC(Cn5cc(-c6cc(Cl)c(Cl)c7[nH]c8c(c67)CN(C(=O)CO)CC8)cn5)CC4)c3C2=O)C(=O)N1 (stereo not drawn)
Result: 44.3
